Glutamate receptor ionotropic, NMDA 1 (Rattus norvegicus, UniProt P35439): reported AC50 for various compounds. Note: assay procedure not described here.

Examples from the recorded data:
Compound: CCCc1cc(=O)[nH]c(=S)[nH]1
Observed result: > 10 µM
--
Compound: CN[C@@H](C)[C@@H](O)c1ccccc1
Observed result: > 10 µM
--
Compound: CC(=O)c1ccc(S(=O)(=O)NC(=O)NC2CCCCC2)cc1 [ACETOHEXAMIDE]
Observed result: > 10 µM
--
Compound: CCOC(=O)c1c(CSc2ccccc2)n(C)c2cc(Br)c(O)c(CN(C)C)c12
Observed result: > 30 µM
--
Compound: NC(=O)NC(=O)Cc1ccccc1 [PHENACEMIDE]
Observed result: > 10 µM

Then there is this compound:
Ask: Hi! What's the reported AC50 for CC[C@@H](CO)NC(=O)[C@@H]1C=C2c3cccc4c3c(cn4C)C[C@H]2N(C)C1 [METHYSERGIDE] on Glutamate receptor ionotropic, NMDA 1 (Rattus norvegicus, UniProt P35439)?
Result: > 10 µM

====

Reported AC50 values for the following compounds.
Tested system: Voltage-gated inwardly rectifying potassium channel KCNH2 (Homo sapiens); note: assay procedure not described here
Sequence (Q12809 whole entry): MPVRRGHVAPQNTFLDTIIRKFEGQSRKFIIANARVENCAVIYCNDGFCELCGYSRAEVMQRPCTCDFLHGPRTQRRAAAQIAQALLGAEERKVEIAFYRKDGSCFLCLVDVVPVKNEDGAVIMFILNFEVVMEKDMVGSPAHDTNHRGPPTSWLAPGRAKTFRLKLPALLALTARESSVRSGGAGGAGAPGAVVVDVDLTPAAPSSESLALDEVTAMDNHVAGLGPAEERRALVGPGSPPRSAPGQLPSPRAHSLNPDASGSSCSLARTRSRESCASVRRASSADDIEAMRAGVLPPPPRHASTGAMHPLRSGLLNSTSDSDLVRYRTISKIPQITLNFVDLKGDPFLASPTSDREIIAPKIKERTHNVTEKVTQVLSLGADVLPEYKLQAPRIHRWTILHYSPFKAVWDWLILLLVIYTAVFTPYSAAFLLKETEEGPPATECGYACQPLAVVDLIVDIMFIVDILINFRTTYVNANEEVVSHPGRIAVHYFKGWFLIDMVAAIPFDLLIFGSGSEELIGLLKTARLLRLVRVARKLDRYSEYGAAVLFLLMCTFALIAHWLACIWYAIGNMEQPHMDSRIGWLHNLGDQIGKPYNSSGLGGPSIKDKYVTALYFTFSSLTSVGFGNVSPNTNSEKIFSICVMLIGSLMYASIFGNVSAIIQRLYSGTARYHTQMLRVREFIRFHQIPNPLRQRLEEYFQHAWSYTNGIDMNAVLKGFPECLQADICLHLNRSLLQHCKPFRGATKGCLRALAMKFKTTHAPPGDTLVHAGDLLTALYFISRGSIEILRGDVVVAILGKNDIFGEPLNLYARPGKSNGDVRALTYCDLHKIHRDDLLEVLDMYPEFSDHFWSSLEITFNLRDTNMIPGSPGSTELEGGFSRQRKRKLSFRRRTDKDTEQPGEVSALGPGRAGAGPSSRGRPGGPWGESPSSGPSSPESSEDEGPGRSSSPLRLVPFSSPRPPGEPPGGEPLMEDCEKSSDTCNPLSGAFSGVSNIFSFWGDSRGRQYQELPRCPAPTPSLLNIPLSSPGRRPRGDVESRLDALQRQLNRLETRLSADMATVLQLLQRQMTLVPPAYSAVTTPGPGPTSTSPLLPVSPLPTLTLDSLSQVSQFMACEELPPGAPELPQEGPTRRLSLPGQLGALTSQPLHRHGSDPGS
Type: functional

Examples from the recorded data:
Compound: CCOC(=O)C1=C(C)NC(C)=C(C(=O)OCC)C1c1ccccc1/C=C/C(=O)OC(C)(C)C
AC50: 17.8 µM
--
Compound: CCC(=O)O[C@]1(C(=O)CCl)[C@@H](C)C[C@H]2[C@@H]3CCC4=CC(=O)C=C[C@]4(C)[C@@]3(F)[C@@H](O)C[C@@]21C [CLOBETASOL PROPIONATE]
AC50: > 30 µM
--
Compound: Cc1cc(C)nc(NS(=O)(=O)c2ccc(N)cc2)n1
AC50: > 30 µM
--
Compound: CNC(=C[N+](=O)[O-])NCCSCc1csc(CN(C)C)n1
AC50: > 30 µM
--
Compound: COc1ccc([C@@H]2CC(=O)c3c(O)cc(O)cc3O2)cc1O
AC50: > 30 µM

Then there is this compound:
Ask: Return reported AC50; argument: C[C@]12C/C(=C/O)C(=O)C[C@@H]1CC[C@@H]1[C@@H]2CC[C@@]2(C)[C@H]1CC[C@]2(C)O
Result: > 30 µM

====

Kappa-type opioid receptor (Homo sapiens, UniProt P41145): reported AC50 for various molecules. Note: assay procedure not described here.
Sequence (P41145 whole entry): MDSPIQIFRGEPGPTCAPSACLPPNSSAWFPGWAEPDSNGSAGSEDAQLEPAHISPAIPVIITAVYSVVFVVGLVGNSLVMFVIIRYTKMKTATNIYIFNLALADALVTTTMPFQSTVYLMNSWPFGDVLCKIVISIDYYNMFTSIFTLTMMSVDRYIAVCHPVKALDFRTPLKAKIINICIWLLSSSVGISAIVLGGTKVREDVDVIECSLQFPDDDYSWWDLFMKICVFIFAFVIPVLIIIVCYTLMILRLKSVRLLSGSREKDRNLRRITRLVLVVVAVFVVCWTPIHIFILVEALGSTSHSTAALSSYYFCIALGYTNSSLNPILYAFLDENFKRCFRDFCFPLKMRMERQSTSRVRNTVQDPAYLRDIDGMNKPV

Molecule: CC(=O)O[C@]1(C(C)=O)CC[C@H]2[C@@H]3C=C(Cl)C4=CC(=O)[C@@H]5C[C@@H]5[C@]4(C)[C@H]3CC[C@@]21C [CYPROTERONE ACETATE]
Observed result: > 10 µM
//
Molecule: COc1ccc(C2C(=O)c3ccccc3C2=O)cc1
Observed result: > 10 µM
//
Molecule: CCOC(=O)C1=C(C)NC(C)=C(C(=O)OCC)C1c1ccccc1/C=C/C(=O)OC(C)(C)C
Observed result: 8.6 µM
//
Molecule: O=C(O)COCCN1CCN(C(c2ccccc2)c2ccc(Cl)cc2)CC1 (stereo not given)
Observed result: > 10 µM
//
Molecule: Cc1ccc(C)c(OCCCC(C)(C)C(=O)O)c1
Observed result: > 10 µM
//
Molecule: CC(c1cc2ccccc2s1)N(O)C(N)=O (stereo not given)
Observed result: > 10 µM
//
Molecule: CC(=O)[C@H]1CC[C@H]2[C@@H]3C[C@H](C)C4=CC(=O)CC[C@]4(C)[C@H]3[C@@H](O)C[C@]12C
Observed result: > 10 µM
//
Molecule: COc1cc(N)c(Cl)cc1C(=O)NC1CCN(CCCOc2ccc(F)cc2)CC1OC (stereo not given) [CISAPRIDE]
Observed result: 16.7 µM
//
Molecule: COc1cc(C)c(/C=C/C(C)=C/C=C/C(C)=C/C(=O)O)c(C)c1C
Observed result: > 10 µM

Ask: Return reported AC50; argument: C[N+](C)(C)CCOP(=O)([O-])OC[C@H](O)CO
Result: > 30 µM

====

Tested system: Alpha-1A adrenergic receptor (Homo sapiens); note: assay procedure not described here
Sequence (P35348 whole entry): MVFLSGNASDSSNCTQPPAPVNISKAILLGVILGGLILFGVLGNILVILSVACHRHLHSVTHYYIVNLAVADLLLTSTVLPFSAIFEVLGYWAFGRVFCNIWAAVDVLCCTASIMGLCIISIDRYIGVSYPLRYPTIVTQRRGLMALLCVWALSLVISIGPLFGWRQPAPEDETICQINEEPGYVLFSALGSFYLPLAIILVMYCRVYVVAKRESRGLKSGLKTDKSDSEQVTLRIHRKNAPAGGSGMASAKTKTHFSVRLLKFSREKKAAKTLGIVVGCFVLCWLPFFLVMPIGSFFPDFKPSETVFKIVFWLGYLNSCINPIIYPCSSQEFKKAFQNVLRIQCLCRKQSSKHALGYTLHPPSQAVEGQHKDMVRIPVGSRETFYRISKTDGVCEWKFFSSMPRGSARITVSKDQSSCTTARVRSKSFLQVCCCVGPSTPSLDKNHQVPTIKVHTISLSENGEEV
Type: functional, cell-based
Endpoint: AC50

Examples from the recorded data:
Molecule: C[N+]12CCC(CC1)C(OC(=O)C(O)(c1ccccc1)c1ccccc1)C2 (stereo unspecified)
Tested system: Alpha-1A adrenergic receptor (Homo sapiens); note: assay procedure not described here
Observed result: > 30 µM

Molecule: CC1(C)S[C@@H]2[C@H](NC(=O)C(C(=O)O)c3ccccc3)C(=O)N2[C@H]1C(=O)O (stereo partly specified) [CARBENICILLIN]
Tested system: Alpha-1A adrenergic receptor (Homo sapiens); note: assay procedure not described here
Observed result: > 30 µM

Molecule: CC(Cc1cccc(C(F)(F)F)c1)NCCOC(=O)c1ccccc1 (stereo unspecified) [BENFLUOREX]
Tested system: Alpha-1A adrenergic receptor (Homo sapiens); note: assay procedure not described here
Observed result: 14 µM

Molecule: C[C@]12C/C(=C/O)C(=O)C[C@@H]1CC[C@@H]1[C@@H]2CC[C@@]2(C)[C@H]1CC[C@]2(C)O [OXYMETHOLONE]
Tested system: Alpha-1A adrenergic receptor (Homo sapiens); note: assay procedure not described here
Observed result: > 30 µM

Ask: Return reported AC50; argument: COC(=O)C1=C(C)NC(C)=C(C(=O)OCCN2CCN(C(c3ccccc3)c3ccccc3)CC2)C1c1cccc([N+](=O)[O-])c1 (stereo unspecified) [MANIDIPINE 6300]
Result: > 30 µM

Ask: Return reported AC50; argument: NC[C@H]1CC[C@H](C(=O)Oc2ccc(CCC(=O)O)cc2)CC1 [CETRAXATE]
Result: > 30 µM

Ask: Return reported AC50; argument: CC(C(=O)O)c1ccc2oc(-c3ccc(Cl)cc3)nc2c1 (stereo unspecified) [BENOXAPROFEN]
Result: 23 µM

Ask: Return reported AC50; argument: CC(C(=O)O)c1ccc2c(c1)CC(=O)c1ccccc1S2 (stereo unspecified) [ZALTOPROFEN]
Result: > 30 µM

Ask: Return reported AC50; argument: Clc1ccc(Cn2c(CN3CCCC3)nc3ccccc32)cc1 [CLEMIZOLE]
Result: 13 µM

Ask: Return reported AC50; argument: CC(C)N(CCCCOCC(=O)O)c1cnc(-c2ccccc2)c(-c2ccccc2)n1
Result: > 30 µM

Ask: Return reported AC50; argument: CC(C)(O/N=C(\C(=O)N[C@@H]1C(=O)N2C(C(=O)[O-])=C(C[n+]3ccccc3)CS[C@H]12)c1csc(N)n1)C(=O)O [CEFTAZIDIME]
Result: > 300 µM

====

Tested system: Alpha-2A adrenergic receptor (Homo sapiens, UniProt P08913); note: assay procedure not described here
Sequence (P08913 whole entry): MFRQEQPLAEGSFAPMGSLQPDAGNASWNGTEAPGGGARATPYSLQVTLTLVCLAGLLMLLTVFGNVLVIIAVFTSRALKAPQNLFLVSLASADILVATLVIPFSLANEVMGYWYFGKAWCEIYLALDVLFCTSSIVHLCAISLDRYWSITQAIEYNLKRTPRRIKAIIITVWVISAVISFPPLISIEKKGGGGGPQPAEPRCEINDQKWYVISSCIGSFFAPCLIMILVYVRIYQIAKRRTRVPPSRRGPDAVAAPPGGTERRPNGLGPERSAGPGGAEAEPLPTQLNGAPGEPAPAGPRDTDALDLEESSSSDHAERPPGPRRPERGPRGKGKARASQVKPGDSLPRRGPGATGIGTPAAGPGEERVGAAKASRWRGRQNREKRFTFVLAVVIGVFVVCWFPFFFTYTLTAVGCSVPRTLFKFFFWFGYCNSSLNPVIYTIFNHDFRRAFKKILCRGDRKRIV
Format: functional, cell-based
Reported AC50 values for the following compounds.

Examples from the recorded data:
Compound: NC(=O)NC(=O)Cc1ccccc1 [PHENACEMIDE]
Tested system: Alpha-2A adrenergic receptor (Homo sapiens, UniProt P08913); note: assay procedure not described here
Observed result: > 10 µM

Compound: CCCN1CC(NS(=O)(=O)N(CC)CC)CC2Cc3c(O)cccc3CC21 (stereo unspecified) [QUINAGOLIDE]
Tested system: Alpha-2A adrenergic receptor (Homo sapiens, UniProt P08913); note: assay procedure not described here
Observed result: > 30 µM

Compound: CC(=O)c1ccc(S(=O)(=O)NC(=O)NC2CCCCC2)cc1 [ACETOHEXAMIDE]
Tested system: Alpha-2A adrenergic receptor (Homo sapiens, UniProt P08913); note: assay procedure not described here
Observed result: > 30 µM

Compound: C[N+](C)(C)CCOP(=O)(O)OP(=O)([O-])OC[C@H]1O[C@@H](n2ccc(N)nc2=O)[C@H](O)[C@@H]1O
Tested system: Alpha-2A adrenergic receptor (Homo sapiens, UniProt P08913); note: assay procedure not described here
Observed result: > 30 µM

Compound: C=C1c2cccc(O)c2C(=O)C2=C(O)[C@]3(O)C(=O)C(C(N)=O)=C(O)[C@@H](N(C)C)[C@@H]3[C@@H](O)[C@H]12
Tested system: Alpha-2A adrenergic receptor (Homo sapiens, UniProt P08913); note: assay procedure not described here
Observed result: > 10 µM

Compound: Clc1ccc(Cn2c(CN3CCCC3)nc3ccccc32)cc1
Tested system: Alpha-2A adrenergic receptor (Homo sapiens, UniProt P08913); note: assay procedure not described here
Observed result: > 10 µM

Compound: CCCCOc1ccc(C(=O)CCN2CCCCC2)cc1
Tested system: Alpha-2A adrenergic receptor (Homo sapiens, UniProt P08913); note: assay procedure not described here
Observed result: > 10 µM

Compound: Oc1ccc(CCNCCCCCCNCCc2ccccc2)cc1O
Tested system: Alpha-2A adrenergic receptor (Homo sapiens, UniProt P08913); note: assay procedure not described here
Observed result: > 30 µM

Compound: CCc1cc2c(s1)-n1c(C)nnc1CN=C2c1ccccc1Cl
Tested system: Alpha-2A adrenergic receptor (Homo sapiens, UniProt P08913); note: assay procedure not described here
Observed result: > 30 µM

Compound: CC(CN(C)C)C(C)(O)Cc1ccc(Cl)cc1 (stereo unspecified)
Tested system: Alpha-2A adrenergic receptor (Homo sapiens, UniProt P08913); note: assay procedure not described here
Observed result: > 10 µM

Then there is this compound:
Ask: Return reported AC50; argument: COc1cc(C)c(/C=C/C(C)=C/C=C/C(C)=C/C(=O)O)c(C)c1C
Result: > 10 µM

====

Tested system: Gamma-aminobutyric acid receptor subunit alpha-1 (Rattus norvegicus, UniProt P62813); note: assay procedure not described here
Sequence (P62813 whole entry): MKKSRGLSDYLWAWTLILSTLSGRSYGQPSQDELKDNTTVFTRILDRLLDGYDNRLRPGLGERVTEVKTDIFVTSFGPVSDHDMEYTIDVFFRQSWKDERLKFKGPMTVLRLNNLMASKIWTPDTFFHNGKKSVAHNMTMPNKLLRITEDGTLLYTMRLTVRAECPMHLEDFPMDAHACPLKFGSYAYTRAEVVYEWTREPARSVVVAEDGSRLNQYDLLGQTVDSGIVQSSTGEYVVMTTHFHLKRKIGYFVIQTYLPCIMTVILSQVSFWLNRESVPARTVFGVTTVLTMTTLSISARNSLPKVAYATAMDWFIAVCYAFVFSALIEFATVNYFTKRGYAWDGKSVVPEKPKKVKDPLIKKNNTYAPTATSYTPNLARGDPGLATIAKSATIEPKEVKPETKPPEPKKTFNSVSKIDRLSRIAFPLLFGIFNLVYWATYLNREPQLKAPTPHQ
Assay type: functional
Reported AC50 values for the following compounds.

Compound: CCOC(=O)c1ccc(N)cc1 [BENZOCAINE]
Tested system: Gamma-aminobutyric acid receptor subunit alpha-1 (Rattus norvegicus, UniProt P62813); note: assay procedure not described here
AC50: > 10 µM
//
Compound: OC[C@H]1O[C@@H](n2cnc3c2NC=NC[C@H]3O)C[C@@H]1O [PENTOSTATIN]
Tested system: Gamma-aminobutyric acid receptor subunit alpha-1 (Rattus norvegicus, UniProt P62813); note: assay procedure not described here
AC50: > 30 µM
//
Compound: Cc1ccc(C)c(OCCCC(C)(C)C(=O)O)c1 [GEMFIBROZIL]
Tested system: Gamma-aminobutyric acid receptor subunit alpha-1 (Rattus norvegicus, UniProt P62813); note: assay procedure not described here
AC50: > 10 µM
//
Compound: Cc1cc(C)nc(NS(=O)(=O)c2ccc(N)cc2)n1 [SULFAMETHAZINE]
Tested system: Gamma-aminobutyric acid receptor subunit alpha-1 (Rattus norvegicus, UniProt P62813); note: assay procedure not described here
AC50: > 10 µM
//
Compound: O=C1Nc2ccc(Cl)cc2C(c2ccccc2Cl)=NC1O (stereo unspecified) [LORAZEPAM]
Tested system: Gamma-aminobutyric acid receptor subunit alpha-1 (Rattus norvegicus, UniProt P62813); note: assay procedure not described here
AC50: 0.0074 µM

Ask: Return reported AC50; argument: COc1ccc2cc(CCC(C)=O)ccc2c1 [NABUMETONE]
Result: > 10 µM

Ask: Return reported AC50; argument: CN(Cc1cnc2nc(N)nc(N)c2n1)c1ccc(C(=O)N[C@@H](CCC(=O)O)C(=O)O)cc1 [METHOTREXATE]
Result: > 10 µM

Ask: Return reported AC50; argument: C=CC[N+]1([C@H]2C[C@H]3[C@@H]4CC[C@H]5C[C@H](O)[C@@H](N6CCOCC6)C[C@]5(C)[C@H]4CC[C@]3(C)[C@H]2OC(C)=O)CCCC1 [ROCURONIUM]
Result: > 30 µM
